Listing of entries alongside the reported z-score.
ASSAY_DETAILS: PSAC antagonists in infected red cells, primary screen, cell-based, P. falciparum Indochina, OD700, 1 h (AID 1154)
TEST_PARAMETERS: P. falciparum Indochina infected RBC osmotic lysis, higher = more signal, called active from +8 up or from −8 down
Keep the answer to the number alone.

The following molecules have reported results that may help.
CO[C@H]1COC(=O)[C@H](C)COC(=O)[C@H](C)NC(=O)CC=C[C@H]1C
0.212
CC#CCOCCC=C1c2ccccc2[C@@H](OC)[C@@H]1C
1.25
COC(=O)C1=C(C)N(Cc2ccccc2)C2=C3C(=O)OCC[C@@H]3[C@@](O)(C(=O)OC)C(=O)N2[C@@H]1c1ccccc1
0.121

Asked: Item under review: COC(=O)CC=C[C@@H](C)[C@@H](C=NOC[C@@H](O)COCc1ccco1)NS(=O)(=O)c1ccc(C)cc1 . Reported z-score?
Given back: 1.25

Asked: Quick one: CC(C)=NO[C@H](C)c1cn([C@@H]2COC[C@H]2O)nn1
Given back: 0.813

Asked: Quick one: CO[C@@H]1COC(=O)[C@H](COCc2ccccc2)NC(=O)CC=C[C@@H](C)[C@H](OC)COC(=O)[C@@H](C)NC(=O)CC=C[C@H]1C
Given back: -0.302

Asked: Quick one: CC(=O)OC[C@H]1O[C@@H](ON=C(C)C)[C@H](OC(C)=O)[C@@H](OC(C)=O)[C@@H]1OC(C)=O
Given back: 0.421

Asked: Quick one: CC(C)(C)N1C(=O)[C@H]2[C@@H]3C(=CC[C@H]2C1=O)C(=O)[C@H]1O[C@H]1[C@H]3O
Given back: -0.23

Asked: Quick one: CCCNC(=O)OC[C@H]1O[C@H](CCON=C[C@@H](NS(=O)(=O)c2ccc(C)cc2)[C@H](C)C=CCC(=O)OC)C=C[C@@H]1Oc1ccc(OC)cc1
Given back: 5.01

Asked: Quick one: O=C1[C@H]2[C@H]3[C@H](O)[C@H](O)CC(=NO[C@@H]4O[C@H](CO)[C@@H](O)[C@H](O)[C@H]4O)[C@@H]3CC[C@H]2C(=O)N1c1cccc(Oc2ccccc2)c1
Given back: -0.612

Asked: Quick one: COC(=O)[C@H](C)NC(=O)CCC1CC(OC(=O)NCc2ccc3c(c2)OCO3)CC2(CCCC(COC(=O)NCc3ccccc3)O2)O1 (stereo partly specified)
Given back: 1.08

Asked: Quick one: CC(CCC(=O)OC[C@H]1O[C@H](C#Cc2ccccc2)C=C[C@@H]1Oc1ccc(C)cc1)=NOC(C)CN1CCCCc2nc(C)c(C)cc21 (stereo partly specified)
Given back: 4.27

Asked: Quick one: CCOC(=O)[C@H](CC(C)C)NC(=O)CCC1CC(OC(=O)NCc2ccc3c(c2)OCO3)CC2(CCCC(COC(=O)NCCC(C)C)O2)O1 (stereo partly specified)
Given back: 2.17

Asked: Quick one: COC(=O)CC=C[C@@H](C)[C@@H](C=NOC(C)CN1CCCCc2nc(C)c(C)cc21)OC (stereo partly specified)
Given back: 1.78

Asked: Quick one: COC(=O)CC=C1c2ccccc2[C@H](OC)[C@H]1C
Given back: 0.0311

Asked: Quick one: C#CCCCON=C1[C@H]2CCn3c(=O)n(Cc4cc5c(cc4Cl)OCO5)c(=O)n3[C@H]2[C@H](O)[C@@H]2O[C@H]12
Given back: 0.649
